experiment: physchem; conditions: pH 6.8 KH2PO4/NaOH buffer, 37 °C, pH 6.8, aqueous buffer, thermodynamic from solid, Solubility, pH 6.8 buffer (50 mM), shaken at 37° C. for 24 hours in total, average of triplicate
measured_metric: solubility at 24 h (µg/mL)
I only need the number, in µg/mL, no unit after it.

INPUT: Reported solubility at 24 h, compound NC(=O)c1cccc2cn(-c3ccc([C@@H]4CCCNC4)cc3)nc12 [Amorphous Form] : ____
OUTPUT: 600

---

experiment: physchem; details: water, Solubility in water; summary statement, conditions not stated
measured_metric: Solubility

INPUT: Reported Solubility, compound NC(=O)c1cccc2cn(-c3ccc([C@@H]4CCCNC4)cc3)nc12 [Amorphous Form] : ____
OUTPUT: ~1000 µg/mL
